Reference source for all entries: patent US10980811B2

Target: FosA3 WT (Escherichia coli, UniProt D7UQM0)
Sequence (D7UQM0 1-138): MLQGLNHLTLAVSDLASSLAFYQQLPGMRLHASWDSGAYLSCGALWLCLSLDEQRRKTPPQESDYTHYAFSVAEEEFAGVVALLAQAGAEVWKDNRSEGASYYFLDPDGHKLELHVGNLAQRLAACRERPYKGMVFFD
READOUT TYPE: Kd (nM)
Number in nM, nothing else.

Provide the documented Kd with FosA3 WT (Escherichia coli, UniProt D7UQM0) as the system for `O=c1[nH]n2cc(-c3n[nH]c(-c4cnc5c(Br)c(=O)[nH]n5c4)c3[N+](=O)[O-])cnc2c1Br`
441

---

molecular target: FosA3 W46A (Escherichia coli, UniProt D7UQM0, W46A); experiment: biochemical
READOUT TYPE: pKd
By convention, pKd is the negative base-10 log of a molar concentration.

Name the reported pKd value associated with the molecule O=c1[nH]n2cc(-c3n[nH]c(-c4cnc5c(Br)c(=O)[nH]n5c4)c3[N+](=O)[O-])cnc2c1Br [ANY1]
5.61

---

Target: FosA3 S36A (Escherichia coli, UniProt D7UQM0, S36A)
Sequence (D7UQM0 1-138 S36A): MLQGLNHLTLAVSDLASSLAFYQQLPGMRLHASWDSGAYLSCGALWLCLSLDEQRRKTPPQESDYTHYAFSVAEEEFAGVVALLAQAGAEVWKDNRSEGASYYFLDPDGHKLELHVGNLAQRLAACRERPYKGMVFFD
Assay: Tryptophan fluorescence binding studies
READOUT TYPE: Kd (nM)
Number in nM, nothing else.

Name the reported Kd value associated with the compound `O=c1[nH]n2cc(-c3n[nH]c(-c4cnc5c(Br)c(=O)[nH]n5c4)c3[N+](=O)[O-])cnc2c1Br`
1360

---

Molecular target: FosA3 Y39F (Escherichia coli, UniProt D7UQM0, Y39F)
Sequence (D7UQM0 1-138 Y39F): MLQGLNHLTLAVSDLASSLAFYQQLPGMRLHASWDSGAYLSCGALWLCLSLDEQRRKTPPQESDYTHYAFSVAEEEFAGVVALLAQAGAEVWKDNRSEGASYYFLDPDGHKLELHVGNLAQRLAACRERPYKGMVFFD
Test: Tryptophan fluorescence binding studies
READOUT TYPE: pKd
By convention, pKd is the negative base-10 log of a molar concentration.

Name the reported pKd value associated with the compound `O=c1[nH]n2cc(-c3n[nH]c(-c4cnc5c(Br)c(=O)[nH]n5c4)c3[N+](=O)[O-])cnc2c1Br`
6.06

---

target: FosA3 R96A (Escherichia coli, UniProt D7UQM0, R96A); assay: Tryptophan fluorescence binding studies
READOUT TYPE: Kd (nM)
Number in nM, nothing else.

Provide the documented Kd with FosA3 R96A (Escherichia coli, UniProt D7UQM0, R96A) as the system for `O=c1[nH]n2cc(-c3n[nH]c(-c4cnc5c(Br)c(=O)[nH]n5c4)c3[N+](=O)[O-])cnc2c1Br`
541

---

target: FosA3 Y131A (Escherichia coli, UniProt D7UQM0, Y131A); assay: Tryptophan fluorescence binding studies
READOUT TYPE: Kd (µM)
Number in µM, nothing else.

Provide the documented Kd with FosA3 Y131A (Escherichia coli, UniProt D7UQM0, Y131A) as the system for O=c1[nH]n2cc(-c3n[nH]c(-c4cnc5c(Br)c(=O)[nH]n5c4)c3[N+](=O)[O-])cnc2c1Br [ANY1]
4.88
